Target: T1, Hu HER3 (CD33-[Human HER3, residues 20-640]-TAG) (human, UniProt P21860 20-640)
T1 construct: N-terminal CD33 leader is a secretion signal and is left out; also called hu HER3-Tag; HER3-Tag; not shown: C-terminal TAG (e.g. FLAG TAG)
Experiment: solution equilibrium titration (SET), IgG
Parameter: Kd (nM)
Just the number in nM, nothing appended.

Use the examples below as a reference point.
Binder	Kd (nM)
MOR10701 R55K (antibody, human IgG1, kappa, V domains shown, Variant of MOR10701; IgG1/kappa) VH: EVQLLESGGGLVQPGGSLRLSCAASGFTFSSYAMSWVRQAPGKGLEWVSVTGAVGKSTYYPDSVKGRFTISRDNSKNTLYLQMNSLRAEDTAVYYCARWGDEGFDIWGQGTLVTVSS VL: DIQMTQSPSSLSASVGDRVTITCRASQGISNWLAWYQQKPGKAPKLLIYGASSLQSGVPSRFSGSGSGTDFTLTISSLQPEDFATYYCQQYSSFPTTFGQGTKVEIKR	0.011
MOR10703 N52S (antibody, human IgG1, kappa, V domains shown, Variant of MOR10703; IgG1/kappa) VH: EVQLLESGGGLVQPGGSLRLSCAASGFTFSSYAMSWVRQAPGKGLEWVSAISSQGKSTYYADSVKGRFTISRDNSKNTLYLQMNSLRAEDTAVYYCARWGDEGFDIWGQGTLVTVSS VL: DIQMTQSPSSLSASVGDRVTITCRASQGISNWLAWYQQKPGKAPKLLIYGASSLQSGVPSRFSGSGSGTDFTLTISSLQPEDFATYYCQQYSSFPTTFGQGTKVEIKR	0.057
MOR10703 A50V_N52S (antibody, human IgG1, kappa, V domains shown, Variant of MOR10703; IgG1/kappa) VH: EVQLLESGGGLVQPGGSLRLSCAASGFTFSSYAMSWVRQAPGKGLEWVSVISSQGKSTYYADSVKGRFTISRDNSKNTLYLQMNSLRAEDTAVYYCARWGDEGFDIWGQGTLVTVSS VL: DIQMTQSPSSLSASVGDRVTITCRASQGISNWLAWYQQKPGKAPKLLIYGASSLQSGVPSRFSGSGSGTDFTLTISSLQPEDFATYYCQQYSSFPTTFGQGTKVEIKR	0.016

Now for a further binder.
Output measured Kd for this item: MOR10702 (antibody, human IgG1, kappa, V domains shown, tested as IgG) VH: EVQLLESGGGLVQPGGSLRLSCAASGFTFSSYAMSWVRQAPGKGLEWVSVISAWGHVKYYADSVKGRFTISRDNSKNTLYLQMNSLRAEDTAVYYCARWGDEGFDIWGQGTLVTVSS VL: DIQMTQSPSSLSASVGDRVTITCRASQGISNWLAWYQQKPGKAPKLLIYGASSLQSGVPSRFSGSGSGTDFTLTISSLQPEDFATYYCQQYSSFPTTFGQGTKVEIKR 0.003

Recorded values, source patent US20130330324A1.
